Just for reference, ChEMBL document CHEMBL4814070 is where these values come from.

target-or-test-system: Glutamate NMDA receptor; GRIN1/GRIN2A (Homo sapiens, UniProt Q05586+Q12879)
test-name: Inhibition of human GluN1a/GluN2A receptor expressed in HEK293 cells assessed as relative inhibition of glycine/glutamate-induced current at 100 uM measured at +40 mV holding potential by whole-cell patch clamp method
Assay type: cell-based
Consider the following compounds; for each one, report its inhibition.
One number for each entry, in %.

Below: 5 compounds and their reported inhibition.
Cc1cccc2nc3c(c(N)c12)CCC3 | 22
Nc1c2c(nc3ccc(F)cc13)CCC2 | 28.7
Cc1ccc2nc3c(c(N)c2c1)CCCCC3 | 40.1
COc1ccc2nc3c(c(N)c2c1)CCCC3.Cl | 77.6
Nc1c2c(nc3cccc(Cl)c13)CCCC2 | 35

// for each compound below, give its inhibition
1. Cc1cccc2nc3c(c(N)c12)CCCC3
2. Nc1c2c(nc3ccc(Br)cc13)CCCCC2

[40.5, 57.7]

----------
target-or-test-system: Glutamate NMDA receptor; GRIN1/GRIN2A (Homo sapiens, UniProt Q05586+Q12879)
Consider the following compounds; for each one, report its pIC50.
Numbers only, as −log10 of the molar value.

Cc1ccc2c(N)c3c(nc2c1)CCCC3.Cl | 4.01
Cl.Nc1c2c(nc3ccc(Br)cc13)CCC2 | 4.29
COc1ccc2nc3c(c(N)c2c1)CCC3 | 4.18
Cl.Nc1c2c(nc3ccc(Cl)cc13)CCC2 | 4.07
Cl.Nc1c2c(nc3ccc(Br)cc13)CCCC2 | 4.34
Cl.Nc1c2c(nc3cccc(Cl)c13)CCCCC2 | 3.95

Entry COc1ccc2nc3c(c(N)c2c1)CCCC3.Cl , system Glutamate NMDA receptor; GRIN1/GRIN2A (Homo sapiens, UniProt Q05586+Q12879): what pIC50 was measured? 4.31

----------
System: Rattus norvegicus
test-name: Reduction in total distance travelled in Wistar rat at 5 mg/kg, ip measured for 10 mins by open field test relative to control
Assay type: functional, organism-based
Calls of active or inactive are those of the source. The calls are words filed in the database; no cut-off is given here.
metric: Activity

Below: 4 molecules and their reported Activity.
Cl.Nc1c2c(nc3ccc(Br)cc13)CCC2 | Active
Cl.Nc1c2c(nc3ccc(Br)cc13)CCCC2 | Active
Cc1ccc2c(N)c3c(nc2c1)CCCC3.Cl | Active
Cl.Nc1c2c(nc3ccc(Cl)cc13)CCC2 | Active

Please turn your attention to the following entry.
Entry Cl.Nc1c2c(nc3cccc(Cl)c13)CCCCC2 , system Rattus norvegicus: what Activity was measured? Active

----------
target-or-test-system: Cholinesterase (Homo sapiens, UniProt P06276)
Sequence (P06276 whole entry): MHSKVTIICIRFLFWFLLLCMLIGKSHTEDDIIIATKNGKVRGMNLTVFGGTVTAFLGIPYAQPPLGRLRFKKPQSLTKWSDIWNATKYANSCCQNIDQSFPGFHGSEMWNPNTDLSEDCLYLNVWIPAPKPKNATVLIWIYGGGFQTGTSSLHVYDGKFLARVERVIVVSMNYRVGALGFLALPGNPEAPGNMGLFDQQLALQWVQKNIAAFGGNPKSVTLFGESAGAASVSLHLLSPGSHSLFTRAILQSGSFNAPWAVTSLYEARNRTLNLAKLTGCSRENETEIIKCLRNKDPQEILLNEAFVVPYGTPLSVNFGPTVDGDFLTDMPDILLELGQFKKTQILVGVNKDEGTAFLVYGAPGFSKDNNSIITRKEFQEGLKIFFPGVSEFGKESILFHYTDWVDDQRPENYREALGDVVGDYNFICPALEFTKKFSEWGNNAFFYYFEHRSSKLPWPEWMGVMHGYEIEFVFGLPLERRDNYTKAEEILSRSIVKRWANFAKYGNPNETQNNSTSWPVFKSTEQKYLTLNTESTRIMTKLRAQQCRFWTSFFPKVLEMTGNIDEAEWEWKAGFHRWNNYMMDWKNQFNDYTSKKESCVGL
pIC50: −log10 of the molar value.
Binning of pIC50 into classes: bucket A = under 5, bucket B = from 5 up to 6, bucket C = 6 and over

The examples below pair each entry with its known result.
Cl.Nc1c2c(nc3cccc(Cl)c13)CCCCC2 | bucket C
COc1ccc2nc3c(c(N)c2c1)CCCCC3 | bucket B
Cc1cccc2nc3c(c(N)c12)CCCC3 | bucket C
Nc1c2c(nc3ccc(F)cc13)CCCCC2 | bucket C
Nc1c2c(nc3cccc(Cl)c13)CCCC2 | bucket C

# bin lookup: classify Nc1c2c(nc3ccc(F)cc13)CCC2 by its pIC50 bucket B

# bin lookup: classify Cc1ccc2c(N)c3c(nc2c1)CCCC3.Cl by its pIC50 bucket B

# bin lookup: classify Cc1ccc2nc3c(c(N)c2c1)CCC3 by its pIC50 bucket A

# bin lookup: classify Cl.Nc1c2c(nc3ccc(Br)cc13)CCCC2 by its pIC50 bucket A

# bin lookup: classify Nc1c2c(nc3c(Cl)cc(Cl)cc13)CCCC2 by its pIC50 bucket A

# bin lookup: classify Nc1c2c(nc3c(Cl)cc(Cl)cc13)CCC2 by its pIC50 bucket A
